# Experimental System: Cytochrome P450 2D6 (Homo sapiens) (UniProt P10635)
# Sequence (P10635 whole entry, looked up): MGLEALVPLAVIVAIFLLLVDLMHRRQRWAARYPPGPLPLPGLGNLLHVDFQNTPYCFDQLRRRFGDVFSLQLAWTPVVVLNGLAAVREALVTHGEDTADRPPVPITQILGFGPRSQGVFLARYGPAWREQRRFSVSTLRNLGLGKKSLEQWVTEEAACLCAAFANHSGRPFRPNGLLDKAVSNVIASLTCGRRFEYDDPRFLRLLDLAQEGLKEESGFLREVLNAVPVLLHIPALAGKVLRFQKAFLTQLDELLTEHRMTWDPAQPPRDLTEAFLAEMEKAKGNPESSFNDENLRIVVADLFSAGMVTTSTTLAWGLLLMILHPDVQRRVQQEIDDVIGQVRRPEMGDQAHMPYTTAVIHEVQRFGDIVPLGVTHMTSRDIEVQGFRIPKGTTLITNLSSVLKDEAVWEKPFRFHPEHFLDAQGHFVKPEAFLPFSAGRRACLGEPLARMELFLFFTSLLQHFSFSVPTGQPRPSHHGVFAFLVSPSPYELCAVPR
# Assay Notes: Cytochrome P450 Family 2 Subfamily D Member 6 (CYP2D6) small molecule antagonists: luciferase reporter qHTS assay (AID 1671196); further: nearly all actives have a fitted effect of over 50% in size
# Experimental Conditions: P450-Glo CYP2D6 enzyme assay, luciferin luminescence, 1 h; series mostly up to 115 µM
Results filed as inconclusive are left out. Active and inactive are the calls of the source. The call rests on the fitted dose curve; in most records, active means well fitted inhibition curve with a large enough effect in the repeat runs; inconclusive means weak or mixed curves; inactive means no such curve, though single readings can be large or run the other way.
Possible outcomes: active, inactive

[[record]]
molecule = "CCC(OC(C)=O)C(CC(C)NC)(c1ccccc1)c1ccccc1 (stereo unspecified)"
group_label = "active"

[[record]]
molecule = "COP(=S)(OC)Oc1ccc([N+](=O)[O-])c(C)c1"
group_label = "active"

[[record]]
molecule = "CCCCCON=O"
group_label = "inactive"

[[record]]
molecule = "CCN(CC)Cc1nccn1-c1ccc([N+](=O)[O-])cc1C(=O)c1ccccc1Cl"
group_label = "active"

[[record]]
molecule = "Cc1cnc2c(C(=O)O)c(Cl)ccc2c1"
group_label = "inactive"

[[record]]
molecule = "Cc1ccc([N+](=O)[O-])[c]2c1[O][Hg]2"
group_label = "active"

[[record]]
molecule = "CSC(=O)c1c(C(F)F)nc(C(F)(F)F)c(C(=O)SC)c1CC(C)C"
group_label = "inactive"

[[record]]
molecule = "C[C@]12CC[C@H]3[C@@H](CCC4=CC(=O)CC[C@@H]43)[C@@H]1CC[C@@H]2OC(=O)CCc1ccco1"
group_label = "inactive"

[[record]]
molecule = "CN/C(=N\\[N+](=O)[O-])NCc1cnc(Cl)s1"
group_label = "inactive"

[[record]]
molecule = "COP(=S)(OC)Oc1nc(Cl)c(Cl)cc1Cl"
group_label = "inactive"

[[record]]
molecule = "N#Cc1ccc(N(CC(N)=O)CC(F)(F)F)cc1C(F)(F)F"
group_label = "active"


###

# Assay Notes: qHTS RealTime-Glo MT Cell Viability Assay in HepG2 cells - 40 hour (AID 1224870); further: nearly all actives have a fitted effect of over 50% in size
# Experimental Conditions: RealTime-Glo luminescence; series mostly up to 76.8 µM
Records with an inconclusive call do not appear. Activity calls are given as the source filed them. Calls come from the whole dose curve; as a rule, active = well fitted cell-killing curve with a large enough effect in the repeat runs; inconclusive = weak or mixed curves, or effect the other way; inactive = flat fitted curve, though single readings scatter.
Possible outcomes: 1 (active), 0 (inactive)

[[record]]
molecule = "CCOP(=S)(OCC)SC(CCl)N1C(=O)c2ccccc2C1=O (stereo unspecified)"
group_label = 0

[[record]]
molecule = "O=S1OCC2C(CO1)C1(Cl)C(Cl)=C(Cl)C2(Cl)C1(Cl)Cl (stereo unspecified)"
group_label = 0

[[record]]
molecule = "COc1ccc2c3c1O[C@H]1[C@H](O)CC[C@H]4[C@@H](C2)N(C)CC[C@@]341"
group_label = 0

[[record]]
molecule = "O.O.O.O=C([O-])[C@H]([O-])[C@@H]([O-])C(=O)[O-].O=C([O-])[C@H]([O-])[C@@H]([O-])C(=O)[O-].[K+].[K+].[Sb+3].[Sb+3]"
group_label = 0

[[record]]
molecule = "O=C(Cl)c1ccccc1F"
group_label = 0

[[record]]
molecule = "CC[C@H](C)[C@H]1O[C@]2(C=C[C@@H]1C)C[C@@H]1C[C@@H](C/C=C(\\C)[C@@H](O[C@H]3C[C@H](OC)[C@@H](O[C@H]4C[C@H](OC)[C@@H](NC)[C@H](C)O4)[C@H](C)O3)[C@@H](C)/C=C/C=C3\\CO[C@@H]4[C@H](O)C(C)=C[C@@H](C(=O)O1)[C@]34O)O2"
group_label = 1

[[record]]
molecule = "CCN(CC)CCN1C(=O)CN=C(c2ccccc2F)c2cc(Cl)ccc21"
group_label = 0

[[record]]
molecule = "ClC(Cl)C(Cl)(Cl)Cl"
group_label = 0

[[record]]
molecule = "N#CCCl"
group_label = 0

[[record]]
molecule = "COc1c2c(cc3c1OCO3)CCN(C)C2"
group_label = 0

[[record]]
molecule = "COC(=O)N(OC)c1ccccc1COc1ccn(-c2ccc(Cl)cc2)n1"
group_label = 0

[[record]]
molecule = "CC(=O)C(Cl)C(=O)N(C)C (stereo unspecified)"
group_label = 0

[[record]]
molecule = "CC1CN1 (stereo unspecified)"
group_label = 0

[[record]]
molecule = "CCN1CCC2(CC1)COc1cc3c(cc12)N(C(=O)c1ccc(-c2ccc(-c4nnc(C)o4)cc2C)cc1)CC3"
group_label = 1

[[record]]
molecule = "CC(C)NCC(O)c1ccccc1Cl (stereo unspecified)"
group_label = 0

[[record]]
molecule = "CN1CCc2cc(Cl)c(O)cc2[C@H]2c3ccccc3CC[C@@H]21"
group_label = 0

[[record]]
molecule = "O=C(O)CCCCCCNC1c2ccccc2CCc2ccccc21"
group_label = 0

[[record]]
molecule = "C=CC(=C)C"
group_label = 0

[[record]]
molecule = "CCCCn1cc[n+](C)c1 (tested in a mixture with another compound)"
group_label = 0

[[record]]
molecule = "CCn1cc[n+](C)c1 (tested in a mixture with another compound)"
group_label = 0

[[record]]
molecule = "ClC1=C(Cl)[C@]2(Cl)[C@H]3[C@H]([C@@H]4C=C[C@H]3C4)[C@@]1(Cl)C2(Cl)Cl"
group_label = 0


# credit: PubChem BioAssay (Tox21)
